The origin of these recorded values is paper PMC2741501.

- Test system: CviR binding to the vioA promoter
- Parameters: species or system Chromobacterium violaceum
- ASSAY CONTEXT: vioA promoter probe, CviR 100-500 nM
MEASURE NAME: DNA binding of purified CviR loaded with the molecule

>>> df
                           molecule                      target_entity             assay_value
0    CCCCCCCCCCCC(=O)N[C@H]1CCOC1=O  CviR binding to the vioA promoter  no ability to bind DNA
1  CCCCCCCCCCCCCC(=O)N[C@H]1CCOC1=O  CviR binding to the vioA promoter  no ability to bind DNA

* * *

- TARGET ENTITY: CviR (Chromobacterium violaceum)
- ASSAY CONTEXT: read-out: EC50, CviR activation of gfp expression; E. coli vioA-gfp
MEASURE NAME: EC50 (nM)
Please give a number only; it is taken to be in nM.

Before answering, review these 2 worked examples.
>>> df
                     molecule  measure_name  assay_value
0      CCCC(=O)N[C@H]1CCOC1=O          EC50        12000
1  CCCCCCCC(=O)N[C@H]1CCOC1=O          EC50           30

# EC50 lookup, item `CCCCCC(=O)N[C@H]1CCOC1=O` 75

* * *

- TARGET ENTITY: CviR (Chromobacterium violaceum, UniProt D3W065)
- Sequence (D3W065 1-265): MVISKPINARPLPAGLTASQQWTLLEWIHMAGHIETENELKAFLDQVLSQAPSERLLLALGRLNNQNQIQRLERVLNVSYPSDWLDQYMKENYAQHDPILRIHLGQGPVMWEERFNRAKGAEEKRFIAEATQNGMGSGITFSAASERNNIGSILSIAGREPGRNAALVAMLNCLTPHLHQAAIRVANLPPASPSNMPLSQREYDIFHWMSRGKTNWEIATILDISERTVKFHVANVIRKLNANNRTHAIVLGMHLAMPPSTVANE
- ASSAY CONTEXT: read-out: IC50, inhibition of CviR-dependent vioA-gfp expression; constant 500 nM C6-HSL
MEASURE NAME: IC50
Enter the number, and then the unit.

// solved cases for IC50 follow
>>> df
                         molecule                             target_entity  assay_value
0  CCCCCCCCCCCC(=O)N[C@H]1CCOC1=O  CviR (Chromobacterium violaceum, UniProt D3W065)       494 nM
1    CCCCCCCCCC(=O)N[C@H]1CCOC1=O  CviR (Chromobacterium violaceum, UniProt D3W065)       208 nM

Now, please, on to the next compound.
I am curious: what IC50 value has been reported for `CCCCCCCCCCCCCC(=O)N[C@H]1CCOC1=O` ? 268 nM
